Please go through the items and note down their inhibition of aggregation.
# assayText: reduction of polyQ htt aggregates in cells – imaging, exon1htt(103Q)mCFP cells, high-content imaging, primary screen (AID 483);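 also: compound exposure lasted 3 days before fixation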
# testContext: exon1htt(103Q)mCFP cell line, aggregate imaging, at 2 µM; stronger effect = higher value
Value expressed in %; do not type the unit.

Reported inhibition of aggregation for CC1CN(S(=O)(=O)c2cccc(C(=O)OCc3cc(=O)oc4cc(O)ccc34)c2)CC(C)O1 (stereo not drawn) : what is it?
3

Using the record for Cn1cnnc1SCC(=O)NCc1cccc(C(F)(F)F)c1 , report its inhibition of aggregation.
0.1

What value of inhibition of aggregation has been reported for the following molecule? CCOc1ncccc1C(=O)OCC(=O)Nc1ncc(C(F)(F)F)cc1Cl
-26.1

Quick check: inhibition of aggregation of Cc1ccccc1NC(=O)c1ccccc1 ?
13.2

Query: inhibition of aggregation; subject: O=C(Nc1ccc(N2CCOCC2)cc1)c1cccc(S(=O)(=O)N2CCCC2)c1
6.3

Fill in the blank: the reported inhibition of aggregation of Nn1c(CSc2nc3ccccc3o2)nnc1CSc1nc2ccccc2o1 is ____.
24.5

Given the molecule O=C(CN1C(=O)CC(c2ccccc2)=Nc2ccccc21)NCc1ccco1 , what is its reported inhibition of aggregation?
6.1

Could you share which inhibition of aggregation value was measured for CC(C)(C)c1cc(C(=S)N2CCN(CCO)CC2)cc(C(C)(C)C)c1O ?
10.4

Would you mind telling me what inhibition of aggregation value was observed for COC(=O)c1cc(Oc2ccc(C(=O)OC)cc2N)cc(C(=O)OC)c1 ?
1

What does the data say about its inhibition of aggregation? Entry: Cc1ccc(S(=O)(=O)Cc2ccc(C(=O)NCc3ccc4c(c3)OCO4)o2)cc1
-21.6

Dear colleague, I am looking for the recorded inhibition of aggregation of the following molecule: CCOC(=O)c1[nH]cc(-c2ccccc2)c1N1CCOCC1
0.7

Param item = O=C1CC(c2ccco2)CC(O)=C1C=NCCN1CCNCC1 (stereo not drawn) ; retrieve measured inhibition of aggregation.
-0.5

I would be grateful if you could share the reported inhibition of aggregation for N#CCCn1cnc2ccccc21 .
22.8

* * *

Please go through the items and note down their nuclei count.
# assayText: endothelial E-selectin expression blockers – imaging, HUVEC, immunofluorescence, MLSMR starter and 10KST1 sets, primary screen (AID 487);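 also: 100% = median nuclei count of all wells on the same plate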
# testContext: HUVEC TNFalpha-induced E-selectin immunofluorescence imaging, at 2 µM; measured here: cell number, toxicity
Your answer should be a plain number; it is taken to be in %.

Using the record for CN(C)CCCN1c2ccccc2Sc2ccc(C(F)(F)F)cc21 , report its nuclei count.
95.5

// query nuclei count value for entry CCOc1ccc(S(=O)(=O)Nc2ccccc2C(=O)Nc2ccccc2N2CCOCC2)cc1
106

Bench note: what nuclei count did O=C(Cn1nnc2c(cnn2-c2ccc(F)cc2)c1=O)c1ccccc1F show?
118

Reported nuclei count, compound CC1(C)S[C@@H]2[C@H](NC(=O)[C@H](N)c3ccccc3)C(=O)N2[C@H]1C(=O)O : ____
131

// query nuclei count value for entry O=C(COc1ccccc1Cl)N1CCCC1
152

* * *

# studyTarget: Muscarinic acetylcholine receptor M4 (Homo sapiens)
# assayText: M4-linked GIRK flux change, two-sided – cell-based, HEK293 M4/GIRK, thallium flux, BTC-AM, M4 allosteric agonist project, primary screen (AID 625);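 also: thallium influx through GIRK channels coupled to M4 in HEK293 cells with BTC-AM dye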
# testContext: at 10 µM, actives lie on both sides
The threshold is 0.006. Values of fluorescence slope beneath it are tagged TRUE; values meeting or exceeding it are tagged FALSE.

Lab note: fluorescence slope threshold 0.006. Does this compound come in strictly under it? COCCN(CC(=O)NC1CCCCC1)C(=O)CSc1nc2ccccc2o1
TRUE

Hello, I'm reviewing records and need to know if fluorescence slope of COc1ccccc1OCc1ccc(C(=O)OCC2CCCO2)o1 (configuration not stated) is below 0.006. Could you check?
TRUE

In plain terms, does COc1cccc2c(=O)c3c(cnn3C)n(C)c12 come in under 0.006 for fluorescence slope?
TRUE

API: query returns whether the compound falls strictly under 0.006 in fluorescence slope. Query: CC1(C)Cc2noc(N)c2C(C)(C)N1OC(=O)c1ccco1
FALSE

Check if fluorescence slope falls below 0.006 for CCCc1ccc(C(C)NC(=O)c2cnccn2)cc1 (configuration not stated) .
TRUE

Input Cc1ccc(-c2nnn(CC(=O)NC3CC4CCC3C4)n2)cc1 (configuration not stated) ; condition: fluorescence slope strictly below 0.006. Does it hold?
FALSE

# check: fluorescence slope < 0.006 for Cc1c(NC(=O)C2CCCNC2=O)c(=O)n(-c2ccccc2)n1C (configuration not stated)
TRUE

Lab note: fluorescence slope threshold 0.006. Does this compound come in strictly under it? COc1ccc(CNC(=O)c2cc(-c3ccc(OC)c(OC)c3)on2)cc1
FALSE

Hello, is fluorescence slope of the following compound strictly smaller than 0.006? O=C1NC(c2ccccc2)(C(F)(F)F)SC2=NCCCN12 (configuration not stated)
TRUE

Please state whether fluorescence slope is below 0.006 for CC(C)c1ccc(NC(=O)C2CC(=O)N(C(C)C)C2)cc1 (configuration not stated)
FALSE

Is it true that fluorescence slope reported for CCOC(=O)c1cnc(-n2nc(C)cc2C)nc1Nc1cccc(C(C)=O)c1 is less than 0.006?
TRUE

State whether 0.006 exceeds fluorescence slope recorded for CC(C)=CCCC(C)NC(=O)NC1CCCCC1 (configuration not stated) .
TRUE
